Hey, just so you know, these numbers are from ChEMBL document CHEMBL4673342.

# Test system: HepG2
# Assay Remarks: Induction of […] uptake in human HepG2 cells at 5 uM by DIL probe based fluorescence assay
# Type: functional, cell-based
Activity calls are given as the source filed them. No cut-off for these calls is given here.
Test Readout: Activity

Answered cases to consult:
compound=CC(C)(O)/C=C/C(=O)[C@](C)(O)[C@H]1[C@H](O)C[C@@]2(C)[C@@H]3CC=C4[C@@H](C[C@H](O)[C@@H](O)C4(C)C)[C@]3(C)C(=O)C[C@]12C result=Active
compound=CC(=O)OC(C)(C)/C=C/C(=O)[C@](C)(O)[C@H]1C(=O)C[C@@]2(C)[C@@H]3CC=C4[C@@H](CC(=O)C(=O)C4(C)C)[C@]3(C)C(=O)C[C@]12C result=inactive
compound=CC(=O)O[C@@H]1C[C@@]2(C)[C@@H]3CC=C4[C@@H](CC(=O)[C@H](OC(C)=O)C4(C)C)[C@]3(C)C(=O)C[C@]2(C)[C@H]1[C@@](C)(O)C(=O)CCC(C)(C)OC(C)=O result=inactive
compound=CC(C)(O)CCC(=O)[C@](C)(O)[C@H]1[C@H](O)C[C@@]2(C)[C@@H]3CC=C4[C@@H](C=C(O)C(=O)C4(C)C)[C@]3(C)C(=O)C[C@]12C result=Active
compound=CC(C)(O)/C=C/C(=O)[C@](C)(O)[C@H]1[C@H](O)C[C@@]2(C)[C@@H]3CC=C4[C@@H](C=C(O)C(=O)C4(C)C)[C@]3(C)C(=O)C[C@]12C result=Active
compound=CC(=O)OC(C)(C)/C=C/C(=O)[C@](C)(O)[C@H]1[C@H](O)C[C@@]2(C)[C@@H]3CC=C4[C@@H](C[C@H](O)C(=O)C4(C)C)[C@]3(C)C(=O)C[C@]12C result=Active

In: Kindly indicate its recorded Activity. Item: `CC1(C)C(=O)[C@@H](O)C[C@@H]2C1=CC[C@@H]1[C@@]2(C)C(=O)C[C@]2(C)[C@@H]([C@@](C)(O)C(=O)C[C@@H](O)C(C)(C)O)[C@H](O)C[C@@]12C`
Out: Active

In: Kindly indicate its recorded Activity. Item: `CC(=O)OC(C)(C)[C@H](O)CC(=O)[C@](C)(O)[C@H]1[C@H](O)C[C@@]2(C)[C@@H]3[C@@H](O)C=C4[C@@H](CC(=O)[C@@H](O)C4(C)C)[C@]3(C)C(=O)C[C@]12C`
Out: Active

In: Kindly indicate its recorded Activity. Item: `CC(=O)O[C@H]1C(=O)C[C@@H]2C(=CC[C@@H]3[C@@]2(C)C(=O)C[C@]2(C)[C@@H]([C@@](C)(O)C(=O)/C=C/C(C)(C)OC(C)=O)[C@H](O)C[C@@]32C)C1(C)C`
Out: inactive

In: Kindly indicate its recorded Activity. Item: `CC(=O)O[C@H]1C[C@@H]2C(=CC[C@@H]3[C@@]2(C)C(=O)C[C@]2(C)[C@@H]([C@@](C)(O)C(=O)CCC(C)(C)OC(C)=O)[C@H](OC(C)=O)C[C@@]32C)C(C)(C)C1=O`
Out: inactive
